- ASSAY COMMENT: protein stability index of a GFP-peptide fusion (yeast GPS) (PSI 1-4); higher = more stable; sorted into four equal gates, so the index is relative within each strain
- RUN PARAMETERS: doa10∆
MEASUREMENT TYPE: protein stability index

[Q] Find the recorded protein stability index belonging to TIQYDPPETKLPYPTYW [SNF5] and report it.
[A] 3.02

[Q] Queued: ISKDCSAFACKTDEVII [BRR2]
[A] 2.99

[Q] Queued: EHIKQDYVASLNELYQT [NSL1]
[A] 2.91

[Q] Queued: KRGEVVKIIRKSETSGR [RPB5]
[A] 3.04

[Q] Queued: TLTDILEDELYHTNPGH [RPN4]
[A] 3.04

[Q] Queued: KNPLFSYVEPVLVASAK [RPL31A]
[A] 2.95

[Q] Queued: VTSMEAAREKKIRELEA [YIL149C/MLP2]
[A] 2.97
